# assayed_system: T1, HMGB1 (UniProt P09429 1-215, limits assumed)
# T1 construct: also called biotinylated HMGB1
# T1 sequence (looked up): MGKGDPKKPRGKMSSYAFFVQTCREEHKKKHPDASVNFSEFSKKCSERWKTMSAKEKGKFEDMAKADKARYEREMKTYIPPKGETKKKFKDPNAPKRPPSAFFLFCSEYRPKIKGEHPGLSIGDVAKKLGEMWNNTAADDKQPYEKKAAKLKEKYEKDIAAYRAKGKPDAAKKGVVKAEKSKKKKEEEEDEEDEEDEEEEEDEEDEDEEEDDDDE
# assay_procedure: Octet BLI
experimental_readout: kon
Give the value; after it, write the unit.

- binder: "R2E6 anti-HMGB1 (designed binder, 14FN3 variant; on phage in phage ELISA, soluble 6xHis-tagged in Octet) NVSPPRRARVTDATETTITIRWGVAQSQVARFQVDAVPANGQTPIQRTIKRSVHTYTITGLQPGTDYKIYLYTLNDNARSSPVVIDAST"
  measured_result: "5040 M⁻¹ s⁻¹"
- binder: "P2C6 anti-HMGB1 (designed binder, 14FN3 variant; on phage in phage ELISA, soluble 6xHis-tagged in Octet) NVSPPRRARVTDATETTITIRWGVAPSQVIRFQVDAVPANGQTPIQRTIKRSVHAYTITGLQPGTDYKIYLYTLNDNARSSPVVIDAST"
  measured_result: "9540 M⁻¹ s⁻¹"
- binder: "R2B5 anti-HMGB1 (designed binder, 14FN3 variant; on phage in phage ELISA, soluble 6xHis-tagged in Octet) NVSPPRRARVTDATETTITIRWTVAESKIARFQVDAVPANGQTPIQRTIKRSKHSYTITGLQPGTDYKIYLYTLNDNARSSPVVIDAST"
  measured_result: "4350 M⁻¹ s⁻¹"
- binder: "P1E8 anti-HMGB1 (designed binder, 14FN3 variant; on phage in phage ELISA, soluble 6xHis-tagged in Octet) NVSPPRRARVTDATETTITISWRAAESAIARFQVDAVPANGQTPIQRTIKRTKHTYTITGLQPGTDYKIYLYTLNDNARSSPVVIDAST"
  measured_result: "1690 M⁻¹ s⁻¹"

Which kon reading was recorded for the binder R2D4 anti-HMGB1 (designed binder, 14FN3 variant; on phage in phage ELISA, soluble 6xHis-tagged in Octet) NVSPPRRARVTDATETTITISWGVAESEVTRFQVDAVPANGQTPIQRTIKRSKHAYTITGLQPGTDYKIYLYTLNDNARSSPVVIDAST ? 1300 M⁻¹ s⁻¹

Which kon reading was recorded for the binder R2F8 anti-HMGB1 (designed binder, 14FN3 variant; also called R2F8 HMGB1 FN3) NVSPPRRARVTDATETTITIRWARSASEIARFQVDAVPANGQTPIQRTIKRSANIYTITGLQPGTDYKIYLYTLNDNARSSPVVIDAST ? 7580 M⁻¹ s⁻¹

Which kon reading was recorded for the binder R2G2 anti-HMGB1 (designed binder, 14FN3 variant; on phage in phage ELISA, soluble 6xHis-tagged in Octet) NVSPPRRARVTDATETTITISWRAAESAIARFQVDAVPANGQTPIQRTIKRTKHTYTITGLQPGTDYKIYLYTLNDNARSSPVVIDAST ? 1840 M⁻¹ s⁻¹
